Origin of the recorded values: ChEMBL document CHEMBL1149662

- target.or.system: Melanocyte-stimulating hormone receptor (Mus musculus)
- assay.explanation: Displacement of [125I]NDP-MSH from MC1 receptor in mouse B16 cells
- Assay type: cell-based
pKi: −log10 of the molar value.
measurement.label: pKi

{"compound": "NCCN(Cc1ccccc1)C(=O)CCCc1c[nH]c2ccccc12", "measurement.label": "pKi", "measurement": 4.66}
{"compound": "NCCCN(C(=O)/C=C/c1c[nH]c2ccccc12)C1CCc2ccccc2C1 (centres undefined)", "measurement.label": "pKi", "measurement": 5.22}
{"compound": "NCC1CCC(CN(Cc2ccccc2)C(=O)CCCc2c[nH]c3ccccc23)CC1 (centres undefined)", "measurement.label": "pKi", "measurement": 5.60}
{"compound": "NCCCCCN(Cc1ccccc1)C(=O)[C@H](N)Cc1ccc(-c2ccccc2)cc1", "measurement.label": "pKi", "measurement": 5.41}
{"compound": "NC1CCC(CC2CCC(N(C/C(Cl)=C/c3ccccc3)C(=O)COc3ccc4ccccc4c3)CC2)CC1 (stereo in doubt; form 7)", "measurement.label": "pKi", "measurement": 5.89}
{"compound": "NCCCCCN(C(=O)CCCc1c[nH]c2ccccc12)C1C2CC3CC(C2)CC1C3 (centres undefined)", "measurement.label": "pKi", "measurement": 5.21}
{"compound": "NCCCCCN(C(=O)Cc1c[nH]c2ccccc12)C1CCCCCC1", "measurement.label": "pKi", "measurement": 5.22}
{"compound": "NCCCCCCCN(Cc1ccccc1)C(=O)CCCc1c[nH]c2ccccc12", "measurement.label": "pKi", "measurement": 5.40}
{"compound": "NC1CCC(CC2CCC(N(C/C(Cl)=C/c3ccccc3)C(=O)CCCc3c[nH]c4ccccc34)CC2)CC1 (stereo in doubt; form 5)", "measurement.label": "pKi", "measurement": 6.21}
{"compound": "NCCN(C(=O)COc1ccc2ccccc2c1)C1CCC2(CCCCC2)CC1", "measurement.label": "pKi", "measurement": 5.22}
{"compound": "C/C(=C\\c1ccccc1)CN(CCCN)C(=O)c1c[nH]c2ccccc12", "measurement.label": "pKi", "measurement": 6.07}
{"compound": "NC1CCC(CC2CCC(N(Cc3c(F)cccc3Cl)C(=O)CCCc3c(Cc4ccc(O)cc4)[nH]c4ccccc34)CC2)CC1 (centres undefined)", "measurement.label": "pKi", "measurement": 5.96}
{"compound": "NCCN(C/C=C/c1ccccc1)C(=O)CCc1c[nH]c2ccccc12", "measurement.label": "pKi", "measurement": 4.77}
{"compound": "NC1CCC(CC2CCC(N(C/C(Cl)=C/c3ccccc3)C(=O)CCCc3c[nH]c4ccccc34)CC2)CC1 (stereo in doubt; form 4)", "measurement.label": "pKi", "measurement": 5.85}
{"compound": "NCCCN(C/C=C/c1ccccc1)C(=O)Cc1c[nH]c2ccccc12", "measurement.label": "pKi", "measurement": 5.19}
{"compound": "NC1CCC(CC2CCC(N(C/C(Cl)=C/c3ccccc3)C(=O)CCCc3c[nH]c4ccccc34)CC2)CC1 (stereo in doubt; form 1)", "measurement.label": "pKi", "measurement": 6.29}
{"compound": "NCCN(C/C(Cl)=C/c1ccccc1)C(=O)CCCc1c[nH]c2ccccc12", "measurement.label": "pKi", "measurement": 5.25}
{"compound": "N=C(N)NCCN(Cc1ccc2ccccc2c1)C(=O)CCCc1c[nH]c2ccccc12", "measurement.label": "pKi", "measurement": 5.08}
{"compound": "NCCCN(C/C=C/c1ccccc1)C(=O)c1c[nH]c2ccccc12", "measurement.label": "pKi", "measurement": 4.77}

====

- target.or.system: Melanocyte-stimulating hormone receptor (Mus musculus, UniProt Q01727)
- Sequence (Q01727 whole entry): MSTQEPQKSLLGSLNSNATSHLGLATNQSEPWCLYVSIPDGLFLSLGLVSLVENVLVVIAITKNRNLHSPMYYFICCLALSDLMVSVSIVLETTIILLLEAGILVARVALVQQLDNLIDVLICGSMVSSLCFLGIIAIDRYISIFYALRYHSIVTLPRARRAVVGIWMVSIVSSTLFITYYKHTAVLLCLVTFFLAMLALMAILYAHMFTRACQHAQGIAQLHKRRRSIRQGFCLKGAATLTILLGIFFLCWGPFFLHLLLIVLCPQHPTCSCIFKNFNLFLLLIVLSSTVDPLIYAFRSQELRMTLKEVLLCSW
- assay.explanation: Displacement of [125I]NDP-MSH from MC1 receptor in mouse B16 cells
- Format: cell-based

{"compound": "C/C(=C\\c1ccccc1)CN(CCCN)C(=O)C(=O)c1c[nH]c2ccccc12", "target.or.system": "Melanocyte-stimulating hormone receptor (Mus musculus, UniProt Q01727)", "unit.name": "nM", "Ki": 1800}
{"compound": "CC1CC(CC2CCC(N(C/C(Cl)=C/c3ccccc3)C(=O)CCCc3c[nH]c4ccccc34)C(C)C2)CCC1N (stereo in doubt; form 2)", "target.or.system": "Melanocyte-stimulating hormone receptor (Mus musculus, UniProt Q01727)", "unit.name": "nM", "Ki": 2200}
{"compound": "NC1CCC(CC2CCC(N(Cc3ccccc3F)C(=O)CCCc3c(Cc4ccc(O)cc4)[nH]c4ccccc34)CC2)CC1 (stereo not drawn)", "target.or.system": "Melanocyte-stimulating hormone receptor (Mus musculus, UniProt Q01727)", "unit.name": "nM", "Ki": 1000}
{"compound": "NC1CCCC(NC(=O)NC2CCCC(N(Cc3ccccc3)C(=O)CCCc3c(Cc4ccc(O)cc4)[nH]c4ccccc34)C2)C1 (stereo not drawn)", "target.or.system": "Melanocyte-stimulating hormone receptor (Mus musculus, UniProt Q01727)", "unit.name": "nM", "Ki": 2900}
{"compound": "NCCCCCCN(Cc1ccccc1)C(=O)CCCc1c[nH]c2ccccc12", "target.or.system": "Melanocyte-stimulating hormone receptor (Mus musculus, UniProt Q01727)", "unit.name": "nM", "Ki": 13000}
{"compound": "NCCCCCN(C/C(Cl)=C\\c1ccccc1)C(=O)CCCc1c[nH]c2ccccc12", "target.or.system": "Melanocyte-stimulating hormone receptor (Mus musculus, UniProt Q01727)", "unit.name": "nM", "Ki": 770}
{"compound": "NCCN(Cc1ccc2ccccc2c1)C(=O)Cc1c[nH]c2ccccc12", "target.or.system": "Melanocyte-stimulating hormone receptor (Mus musculus, UniProt Q01727)", "unit.name": "nM", "Ki": 36000}
{"compound": "N[C@H]1CC[C@H](C[C@H]2CC[C@H](N(C/C(Cl)=C/c3ccccc3)C(=O)CCCc3c[nH]c4ccccc34)CC2)CC1", "target.or.system": "Melanocyte-stimulating hormone receptor (Mus musculus, UniProt Q01727)", "unit.name": "nM", "Ki": 3100}

====

- target.or.system: Melanocortin receptor 4 (Homo sapiens, UniProt P32245)
- Sequence (P32245 whole entry): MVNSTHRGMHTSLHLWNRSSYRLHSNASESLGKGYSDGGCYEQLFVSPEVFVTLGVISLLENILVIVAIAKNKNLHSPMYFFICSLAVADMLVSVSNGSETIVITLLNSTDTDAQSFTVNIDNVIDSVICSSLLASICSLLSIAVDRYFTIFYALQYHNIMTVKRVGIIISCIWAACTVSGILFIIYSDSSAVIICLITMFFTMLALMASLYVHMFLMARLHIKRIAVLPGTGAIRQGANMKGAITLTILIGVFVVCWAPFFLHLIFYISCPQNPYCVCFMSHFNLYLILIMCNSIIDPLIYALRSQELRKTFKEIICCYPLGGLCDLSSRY
- assay.explanation: Displacement of [125I]NDP-MSH from human recombinant MC4 receptor expressed in Sf9 cells
As shown below, each of these molecules has a reported log10(Ki) value.
measurement.label: log10(Ki) (log10 of the value in µM)

{"molecule": "C=C(Br)CN(C(=O)CCCc1c[nH]c2ccccc12)C1CCC(CC2CCC(N)CC2)CC1 (stereo in doubt; form 4)", "log10(Ki)": 0.58}
{"molecule": "N=C(N)NCCCN(Cc1ccc2ccccc2c1)C(=O)CCc1c[nH]c2ccccc12", "log10(Ki)": 1.20}
{"molecule": "Cc1ccc(CN(C(=O)CCCc2c[nH]c3ccccc23)C2CCC(CC3CCC(N)CC3)CC2)cc1 (centres undefined)", "log10(Ki)": 0.32}
{"molecule": "N[C@H]1CC[C@H](N(Cc2ccccc2)C(=O)CCCc2c[nH]c3ccccc23)CC1", "log10(Ki)": 0.92}
{"molecule": "NCCCCCN(Cc1ccccc1)C(=O)[C@H](N)Cc1ccc(-c2ccccc2)cc1", "log10(Ki)": 1.15}
{"molecule": "NCCCCN(C/C=C/c1ccccc1)C(=O)CCc1c[nH]c2ccccc12", "log10(Ki)": 1.26}
{"molecule": "N=C(N)NC1CCC(CC2CCC(N(C/C=C/c3ccccc3)C(=O)CCCc3c[nH]c4ccccc34)CC2)CC1 (centres undefined)", "log10(Ki)": 1.58}
{"molecule": "N#Cc1ccc(CN(C(=O)CCCc2c[nH]c3ccccc23)C2CCC(CC3CCC(N)CC3)CC2)cc1 (stereo in doubt; form 2)", "log10(Ki)": 0.20}
{"molecule": "NCCCCCN(C/C=C\\c1ccccc1)C(=O)CCc1c(Cc2ccc(O)cc2)[nH]c2ccccc12", "log10(Ki)": 0.85}
{"molecule": "N=C(N)NCCN(Cc1ccc2ccccc2c1)C(=O)Cc1c[nH]c2ccccc12", "log10(Ki)": 2.25}
{"molecule": "C=C(Br)CN(C(=O)CCCc1c[nH]c2ccccc12)C1CCC(CC2CCC(N)CC2)CC1 (stereo in doubt; form 1)", "log10(Ki)": 0.51}
{"molecule": "NCCN(Cc1ccc2ccccc2c1)C(=O)c1c[nH]c2ccccc12", "log10(Ki)": 1.82}
{"molecule": "CCC(c1ccccc1)N(CCCCN)C(=O)CCc1c[nH]c2ccccc12 (centres undefined)", "log10(Ki)": 2.20}
{"molecule": "CC(c1csc2ccccc12)N(CCCN)C(=O)CCCc1c[nH]c2ccccc12 (centres undefined)", "log10(Ki)": 0.99}
{"molecule": "NC1CCC(CC2CCC(N(C/C(Cl)=C/c3ccccc3)C(=O)COc3ccc4ccccc4c3)CC2)CC1 (stereo in doubt; form 2)", "log10(Ki)": 0.77}
{"molecule": "NC1CCC(CC2CCC(N(Cc3c(F)cccc3Cl)C(=O)CCCc3c(Cc4ccc(O)cc4)[nH]c4ccccc34)CC2)CC1 (centres undefined)", "log10(Ki)": 0.28}
{"molecule": "NCCCN(C/C=C/c1ccccc1)C(=O)CCc1c[nH]c2ccccc12", "log10(Ki)": 1.91}
{"molecule": "C/C(=C\\c1ccccc1)CN(CCCN)C(=O)CCCc1cccs1", "log10(Ki)": 1.15}
{"molecule": "NC1CCC(CC2CCC(N(Cc3ccccc3F)C(=O)CCCc3c[nH]c4ccccc34)CC2)CC1 (centres undefined)", "log10(Ki)": 0.57}
{"molecule": "NCCCCCN(Cc1ccccc1)C(=O)[C@@H](N)Cc1c[nH]c2ccccc12", "log10(Ki)": 1.64}
{"molecule": "NCCCN(C/C=C/c1ccccc1)C(=O)c1c[nH]c2ccccc12", "log10(Ki)": 1.36}
{"molecule": "NC1CCC(CC2CCC(N(C/C(Cl)=C/c3ccccc3)C(=O)CCCc3c[nH]c4ccccc34)CC2)CC1 (stereo in doubt; form 1)", "log10(Ki)": 0.61}
{"molecule": "N=C(N)NC1CCC(CC2CCC(N(C/C(Cl)=C/c3ccccc3)C(=O)CCCc3c[nH]c4ccccc34)CC2)CC1 (stereo in doubt; form 2)", "log10(Ki)": 0.53}
{"molecule": "NCCCCCN(C(=O)COc1ccc2ccccc2c1)C1CCC2(CC=CCC2)CC1 (centres undefined)", "log10(Ki)": 0.77}
{"molecule": "NC1CCC(CC2CCC(N(C/C(Cl)=C/c3ccccc3)C(=O)COc3ccc4ccccc4c3)CC2)CC1 (stereo in doubt; form 7)", "log10(Ki)": 0.60}
{"molecule": "N=C(N)NC1CCC(CC2CCC(N(Cc3ccccc3)C(=O)CCCc3c[nH]c4ccccc34)CC2)CC1 (centres undefined)", "log10(Ki)": 0.53}
{"molecule": "NCc1cccc(CN(Cc2ccc3ccccc3c2)C(=O)CCCc2c[nH]c3ccccc23)c1", "log10(Ki)": 0.89}
{"molecule": "COc1cc(O)ccc1/C=C/CN(C(=O)CCCc1c[nH]c2ccccc12)C1CCC(CC2CCC(N)CC2)CC1 (stereo in doubt; form 2)", "log10(Ki)": 0.90}
{"molecule": "Cc1cccc(CN(C(=O)CCCc2c(Cc3ccc(O)cc3)[nH]c3ccccc23)C2CCC(CC3CCC(N)CC3)CC2)c1 (centres undefined)", "log10(Ki)": 0.53}
{"molecule": "CC1CC(CC2CCC(N(Cc3ccccc3)C(=O)CCCc3c[nH]c4ccccc34)C(C)C2)CCC1N (stereo in doubt; form 1)", "log10(Ki)": 0.08}
{"molecule": "NC1CCC(CC2CCC(N(C/C(Cl)=C/c3ccccc3)C(=O)COc3ccc4ccccc4c3)CC2)CC1 (stereo in doubt; 10b-36-14)", "log10(Ki)": 0.57}
{"molecule": "N=C(N)NCCCCN(Cc1ccc2ccccc2c1)C(=O)Cc1c[nH]c2ccccc12", "log10(Ki)": 2.26}
{"molecule": "NC1CCC(CC2CCC(N(Cc3c(Cl)cccc3Cl)C(=O)CCCc3c[nH]c4ccccc34)CC2)CC1 (centres undefined)", "log10(Ki)": 0.41}
{"molecule": "N[C@H]1CC[C@H](N(C/C(Cl)=C/c2ccccc2)C(=O)CCCc2c[nH]c3ccccc23)CC1", "log10(Ki)": 0.51}
